Test system: CCRF-CEM
ASSAY NAME: NCI DTP human tumor cell line screen (SRB)
Type: cell-based
TEST CONTEXT: Leukemia, 10 μM, 48 h
Measured Growth Percent by item
Provide the reading as a plain figure in %.

Here are 4 compounds together with their reported answers.
CC1CCC2C(C)C(OCc3ccc(C(=O)NN=Cc4ccccc4O)nc3)OC3OC4(C)CCC1C32OO4 (stereo not drawn): −17.26
CC1CCC2C(C)C(OCc3ccc(C(=O)NN=Cc4ccccc4O)cc3)OC3OC4(C)CCC1C32OO4 (stereo not drawn): −19.45
CC1CCC2C(C)C(OCc3ccc(C(=O)NN=Cc4ccccc4O)o3)OC3OC4(C)CCC1C32OO4 (stereo not drawn): −23.63
CC1CCC2C(C)C(OCCn3cc(C(=O)NN=Cc4ccccc4O)nn3)OC3OC4(C)CCC1C32OO4 (stereo not drawn): −14.86

[ask] // query Growth Percent value for entry CC1CCC2C(C)C(OCc3ccc(C(=O)NN=Cc4ccccc4)cc3)OC3OC4(C)CCC1C32OO4 (stereo not drawn)
[reply] 6.71

[ask] // query Growth Percent value for entry Cc1ncc(CO)c(C=NNC(=O)c2ccc(COC3OC4OC5(C)CCC6C(C)CCC(C3C)C46OO5)cc2)c1O (stereo not drawn)
[reply] 2.34

---

Measured Growth Percent by item
System: HS 578T
ASSAY NAME: NCI DTP human tumor cell line screen (SRB)
Type: cell-based
TEST CONTEXT: Breast Cancer, 10 μM, 48 h
Provide the reading as a plain figure in %.

CC1CCC2C(C)C(OCc3ccc(C(=O)NN=Cc4ccccc4)cc3)OC3OC4(C)CCC1C32OO4 (stereo not drawn): 34.12
Cc1ncc(CO)c(C=NNC(=O)c2ccc(COC3OC4OC5(C)CCC6C(C)CCC(C3C)C46OO5)cc2)c1O (stereo not drawn): −15.69
CC1CCC2C(C)C(OCCn3cc(C(=O)NN=Cc4ccccc4O)nn3)OC3OC4(C)CCC1C32OO4 (stereo not drawn): 48.29
CC1CCC2C(C)C(OCc3ccc(C(=O)NN=Cc4ccccc4O)nc3)OC3OC4(C)CCC1C32OO4 (stereo not drawn): 19.38
CC1CCC2C(C)C(OCc3ccc(C(=O)NN=Cc4ccccc4O)o3)OC3OC4(C)CCC1C32OO4 (stereo not drawn): 40.07

[ask] // query Growth Percent value for entry CC1CCC2C(C)C(OCc3ccc(C(=O)NN=Cc4ccccc4O)cc3)OC3OC4(C)CCC1C32OO4 (stereo not drawn)
[reply] 29.71

---

System: EKVX
ASSAY NAME: NCI DTP human tumor cell line screen (SRB)
Assay type: cell-based
TEST CONTEXT: Non-Small Cell Lung Cancer, 10 μM, 48 h
We label by threshold. Values of Growth Percent strictly beneath 30% are True. Values of 30% and up are False.

CC1CCC2C(C)C(OCCn3cc(C(=O)NN=Cc4ccccc4O)nn3)OC3OC4(C)CCC1C32OO4 (stereo not drawn) [ART-Triazole-Sal]: False
CC1CCC2C(C)C(OCc3ccc(C(=O)NN=Cc4ccccc4O)nc3)OC3OC4(C)CCC1C32OO4 (stereo not drawn) [ART-Pyr-Sal]: False
CC1CCC2C(C)C(OCc3ccc(C(=O)NN=Cc4ccccc4O)o3)OC3OC4(C)CCC1C32OO4 (stereo not drawn) [ART-Furan-Sal]: True
CC1CCC2C(C)C(OCc3ccc(C(=O)NN=Cc4ccccc4O)cc3)OC3OC4(C)CCC1C32OO4 (stereo not drawn) [ART-Phe-Sal]: True

[ask] Does Cc1ncc(CO)c(C=NNC(=O)c2ccc(COC3OC4OC5(C)CCC6C(C)CCC(C3C)C46OO5)cc2)c1O (stereo not drawn) [ART-Phe-Pyridoxal] have Growth Percent strictly under 30%?
[reply] True

[ask] Does CC1CCC2C(C)C(OCc3ccc(C(=O)NN=Cc4ccccc4)cc3)OC3OC4(C)CCC1C32OO4 (stereo not drawn) [ART-Phe-Bz] have Growth Percent strictly under 30%?
[reply] True

Every entry's value here was drawn from patent US7692030B2.
